// provenance: patent US20240116985A1

target.of.assay: full-length beta-Catenin (Uniprot ID P35222) (Homo sapiens, UniProt P35222)
Construct: 10 nM full-length beta-Catenin (Uniprot ID P35222)
Sequence (P35222 whole entry): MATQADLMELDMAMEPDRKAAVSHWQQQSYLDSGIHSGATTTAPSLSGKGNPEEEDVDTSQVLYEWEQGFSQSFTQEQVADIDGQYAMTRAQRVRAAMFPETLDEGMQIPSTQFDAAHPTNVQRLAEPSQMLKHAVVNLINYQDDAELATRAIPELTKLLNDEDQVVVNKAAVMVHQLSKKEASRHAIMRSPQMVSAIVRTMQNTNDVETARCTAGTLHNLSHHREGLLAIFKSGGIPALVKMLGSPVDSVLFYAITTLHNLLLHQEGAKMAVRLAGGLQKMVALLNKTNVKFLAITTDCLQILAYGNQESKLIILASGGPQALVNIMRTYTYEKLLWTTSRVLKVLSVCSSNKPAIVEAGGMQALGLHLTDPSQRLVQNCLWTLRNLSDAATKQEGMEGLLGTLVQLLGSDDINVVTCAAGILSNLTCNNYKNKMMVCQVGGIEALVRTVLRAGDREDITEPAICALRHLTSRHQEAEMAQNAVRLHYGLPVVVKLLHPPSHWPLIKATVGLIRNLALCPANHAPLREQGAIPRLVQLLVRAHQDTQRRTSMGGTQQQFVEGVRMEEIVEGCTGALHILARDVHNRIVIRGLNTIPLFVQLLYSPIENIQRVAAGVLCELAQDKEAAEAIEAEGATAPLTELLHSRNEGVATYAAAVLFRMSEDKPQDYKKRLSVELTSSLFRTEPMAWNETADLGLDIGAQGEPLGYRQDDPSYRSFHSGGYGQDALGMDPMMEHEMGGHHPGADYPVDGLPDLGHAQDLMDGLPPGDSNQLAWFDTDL
measurement.notes: Fluorescence polarization IC50 (beta-catenin / 5FAM-TCF4 10-53 competition)
Format: binding
test.conditions: fluorescence polarization; read-out: beta-Catenin FP IC50
property: IC50 (nM)
Give the value in nM but do not write nM after it.

compound	target.of.assay	IC50, nM
CC(=O)N1CCC[C@]12CC=CCC1(CC=CCCCCCOC(=O)N3CC[C@](C(=O)N[C@@H](Cc4ccsc4)C(=O)N[C@@H](Cc4csc5ccccc45)C(=O)N[C@@H](CCC(N)=O)C(N)=O)(C3)NC(=O)[C@H](CC(C)C)NC(=O)[C@H](Cc3ccccc3)NC(=O)[C@H](C)NC(=O)[C@H](C)NC(=O)[C@H](CC(=O)O)NC(=O)[C@H](CC(=O)O)NC1=O)NC(=O)[C@H](CC(C)(C)C)NC(=O)[C@H](CC(=O)O)NC2=O (single isomer, unassigned) [I-2159]	full-length beta-Catenin (Uniprot ID P35222) (Homo sapiens, UniProt P35222)	116

Next item in the queue.
[Q] Endpoint output: IC50 of CC(=O)N1CCC[C@]12CC=CCCCC1(CCCC=CCCCOC(=O)N3CC[C@@](C(=O)N[C@@H](Cc4ccsc4)C(=O)N[C@@H](Cc4csc5ccccc45)C(=O)N[C@@H](CCC(N)=O)C(N)=O)(C3)NC(=O)[C@H](CC(N)=O)NC(=O)[C@H](Cc3ccccc3)NC(=O)[C@H](C)NC(=O)[C@H](C)NC(=O)[C@H](Cc3ccc(-c4nnn[nH]4)cc3)NC(=O)[C@H](CC(=O)O)NC1=O)NC(=O)[C@H](CC(C)(C)C)NC(=O)[C@H](CC(=O)O)NC2=O (some centres unmarked) . Value?
[A] 39
